studyTarget: human adenosine A2A receptor (Homo sapiens, UniProt P29274)
Construct: expressed in transfected cells; host or cells: CHO cells, semliki forest virus expression system; membrane preparation
Sequence (P29274 whole entry): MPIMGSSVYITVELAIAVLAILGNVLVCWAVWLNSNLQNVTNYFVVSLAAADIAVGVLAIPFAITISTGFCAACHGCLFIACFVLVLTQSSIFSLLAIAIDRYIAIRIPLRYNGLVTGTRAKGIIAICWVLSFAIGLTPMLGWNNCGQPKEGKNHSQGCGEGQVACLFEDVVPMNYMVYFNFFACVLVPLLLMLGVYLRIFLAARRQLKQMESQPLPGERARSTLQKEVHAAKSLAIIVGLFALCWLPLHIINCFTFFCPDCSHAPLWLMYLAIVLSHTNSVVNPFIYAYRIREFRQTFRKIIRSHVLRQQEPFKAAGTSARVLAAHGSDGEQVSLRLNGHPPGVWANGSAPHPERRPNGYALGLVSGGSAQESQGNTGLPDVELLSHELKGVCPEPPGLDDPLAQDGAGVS
methodNotes: Human adenosine A2A receptor [3H]-SCH-583261 binding assay (SPA, CHO cell membranes)
statedConditions: [3H]-SCH-583261 1 nM; membranes of CHO cells expressing the recombinant receptor; Ki by Cheng-Prussoff equation; read-out: hA2 (pKi) (converted)

- molecule: "COc1ccc(N2CCOCC2)c2sc(NC(=O)c3ccnc(OCc4ccccn4)c3)nc12 [Example 6]"
  Ki (nM): 1.15
- molecule: "CCOCCN(C)Cc1cc(C(=O)Nc2nc3c(OC)ccc(N4CCOCC4)c3s2)ccn1 [Example 104]"
  Ki (nM): 3.16
- molecule: "CCOc1cc(C(=O)Nc2nc3c(OC)ccc(N4CCOCC4)c3s2)ccn1 [Example 3]"
  Ki (nM): 3.09
- molecule: "COc1ccc(N2CCOCC2)c2sc(NC(=O)c3ccnc(CN4CCOCC4)c3)nc12 [Example 56]"
  Ki (nM): 1.58
- molecule: "CCCNc1cc(C(=O)Nc2nc3c(OC)ccc(N4CCOCC4)c3s2)ccn1 [Example 93]"
  Ki (nM): 1.07
- molecule: "COc1ccc(N2CCOCC2)c2sc(NC(=O)c3ccnc(NCc4ccccc4)c3)nc12 [Example 83]"
  Ki (nM): 1.74
- molecule: "COc1ccc(N2CCOCC2)c2sc(NC(=O)c3ccnc(NCCN4CCOCC4)c3)nc12 [Example 18]"
  Ki (nM): 0.617
- molecule: "CCCCNCc1cc(C(=O)Nc2nc3c(OC)ccc(N4CCOCC4)c3s2)ccn1 [Example 52]"
  Ki (nM): 1.58
